- Test Method Notes: Cytotoxicity against human rhabdomyosarcoma cells
- Format: cell-based
Measurement Label: CC50

> print(dat)
                                   compound  measurement.label  test.result
1  O=C1N(Cc2cccc(COc3ccc(-c4ccc(Cl)cc4)cc3)n2)CCN1c1ccncc1               CC50      > 25 µM
2  O=C1N(CCN(CCOc2ccc(-c3ccc(Cl)cc3)cc2)Cc2ccccc2)CCN1c1ccncc1               CC50       > 5 µM
3  O=C1N(CCOCCOc2ccc(-c3ccc(Cl)cc3)cc2)CCN1c1ccncc1               CC50        25 µM
4  O=C1N(CCN(CCOc2ccc(-c3ccc(Cl)cc3)cc2)Cc2ccc(Cl)cc2)CCN1c1ccncc1               CC50      > 25 µM
5  O=C1N(CCC2(CCOc3ccc(-c4ccc(Cl)cc4)cc3)CCCCC2)CCN1c1ccncc1               CC50      > 25 µM

Input line: Which CC50 is reported for this compound? CC(CCOc1ccc(-c2ccc(Cl)cc2)cc1)CCN1CCN(c2ccncc2)C1=O (configuration not stated)
Output line: > 25 µM

Input line: Need CC50, item CCc1nc(-c2ccc(OCCC(C)CCN3CCN(c4ccncc4)C3=O)cc2)no1 (configuration not stated)
Output line: > 25 µM

Input line: Given the compound Cc1nc(-c2ccc(OCCC(C)CCN3CCN(c4ccncc4)C3=O)cc2)no1 (configuration not stated) , what is its reported CC50?
Output line: > 6.25 µM

Input line: Which CC50 is reported for this compound? O=C1N(Cc2ccccc2COc2ccc(-c3ccc(Cl)cc3)cc2)CCN1c1ccncc1
Output line: > 1.25 µM

Input line: Quick one: CC50 of O=C1N(Cc2cccc(COc3ccc(-c4ccc(Cl)cc4)cc3)c2)CCN1c1ccncc1 ?
Output line: > 6.25 µM

Input line: # query: CC50 of entry Cc1cc(COc2ccc(-c3ccc(Cl)cc3)cc2)cc(CN2CCN(c3ccncc3)C2=O)c1
Output line: > 25 µM

Input line: Could you tell me which CC50 is on file for CCCC(CCOc1ccc(-c2ccc(Cl)cc2)cc1)CCN1CCN(c2ccncc2)C1=O (configuration not stated) ?
Output line: > 25 µM

Input line: Entry CC(CCOc1ccc(-c2noc(C(F)(F)F)n2)cc1)CCN1CCN(c2ccncc2)C1=O (configuration not stated) : reported CC50 = ?
Output line: > 25 µM

Input line: Item CCCc1nc(-c2ccc(OCCC(C)CCN3CCN(c4ccncc4)C3=O)cc2)no1 (configuration not stated) has what recorded CC50?
Output line: > 12.5 µM
